- Tested on: MDA-MB-231
- assay_overview: Antiproliferative activity against human MDA-MB-231 cells assessed as cell growth inhibition incubated for 72 hrs by MTT assay
- Type: functional, cell-based
- conditions: MDA-MB-231, 72 h
I'd appreciate it if you could supply IC50 values for the items below.
Hi! Could you send only the number? It should be in µM, unit omitted.

Input Cc1cc(C)c(CNC(=O)c2cc(-c3ccc(N4CCN(C(=O)CCCCCCC(=O)N[C@H](C(=O)N5C[C@H](O)C[C@H]5C(=O)NCc5ccc(-c6scnc6C)cc5)C(C)(C)C)CC4)nc3)cc3c2cnn3C(C)C)c(=O)[nH]1 . Output IC50: 25.2

Input Cc1cc(C)c(CNC(=O)c2cc(-c3ccc(N4CCN(C(=O)CCCCc5cn(CCOCCOCCOCCOCCOCCNc6cccc7c6C(=O)N(C6CCC(=O)NC6=O)C7=O)nn5)CC4)nc3)cc3c2cnn3C(C)C)c(=O)[nH]1 (stereo not given) . Output IC50: 30.3

Input CCN(c1cc(-c2ccc(N3CCN(C(=O)CCCCCCCCc4cn(CCOCCOCCOCCOCCOCCOCCNc5cccc6c5C(=O)N(C5CCC(=O)NC5=O)C6=O)nn4)CC3)nc2)cc(C(=O)NCc2c(C)cc(C)[nH]c2=O)c1C)C1CCOCC1 (stereo not given) . Output IC50: 1.28
